system_under_test: mineralocorticoid receptor (MR) (Homo sapiens, UniProt P08235)
Sequence (P08235 726-964 limits assumed, species assumed): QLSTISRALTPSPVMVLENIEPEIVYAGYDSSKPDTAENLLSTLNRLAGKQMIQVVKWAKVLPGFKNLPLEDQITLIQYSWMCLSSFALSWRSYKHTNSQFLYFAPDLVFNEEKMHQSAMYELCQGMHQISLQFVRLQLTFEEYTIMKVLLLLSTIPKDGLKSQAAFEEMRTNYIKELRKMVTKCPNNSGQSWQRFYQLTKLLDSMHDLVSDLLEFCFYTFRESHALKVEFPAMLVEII
experimental_details: Activity test in vitro: Gal4 DBD-MR LBD dual luciferase reporter assay in HEK293 cells
condition_info: HEK293 cells transfected with Gal4 DBD-MR LBD and firefly luciferase reporter; agonist aldosterone at EC80; 18 hours incubation; Renilla-corrected
pIC50: −log10 of the molar value.
parameter: pIC50

• COc1cc(C#N)ccc1C1C(C(N)=O)=C(C)Nc2c(C)cnc(OCC3CCCC3)c21 (centres unmarked) = 7.54
• COc1cc(C#N)ccc1C1C(C(N)=O)=C(C)Nc2c(C)cnc(OCC3CCC3)c21 (centres unmarked) = 7.75

P. COc1cc(C#N)ccc1C1C(C(N)=O)=C(C)Nc2c(C)cnc(OCC3CC3)c21 (centres unmarked)
Q. COc1cc(C#N)ccc1C1C(C(N)=O)=C(C)Nc2c(C)cnc(OC3CCC3)c21 (centres unmarked)
R. COc1cc(C#N)ccc1C1C(C(N)=O)=C(C)Nc2c(C)cnc(OC3CCCC3)c21 (centres unmarked)
input: Ranking field: pIC50; order: falling. Returns: the labels arranged in the requested order.
output: Q, R, P
(Q: 8.46, R: 8.11, P: 7.71)
